Assay: protein stability index of a GFP-peptide fusion (GPS, HEK-293T) (PSI 1-6); higher = more stable;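 note: 24-mer peptide tiles fused after GFP, lentivirally expressed, FACS-sorted into six equal bins by GFP/DsRed ratio, decoded by Illumina sequencing, PSI is the read-weighted mean bin number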
Settings: treatment: MLN4924 1 uM, 8 h; c terminus: a fixed tail appended
The sequences listed here are annotated with their protein stability index.
Give a plain numeric answer without units written out.

Consider the worked cases shown below.
[
  {
    "sequence-content": "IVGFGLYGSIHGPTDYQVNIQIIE [BTBD1]",
    "measured-endpoint": "protein stability index",
    "recorded-result": 2.6
  },
  {
    "sequence-content": "PAAPGAGGGSGSAPGPSRIADYLL [TRIB1]",
    "measured-endpoint": "protein stability index",
    "recorded-result": 4.14
  },
  {
    "sequence-content": "TMAAKKNRQSSDKQNGRVAKVKGH [C18orf25]",
    "measured-endpoint": "protein stability index",
    "recorded-result": 4.58
  }
]

Report measured protein stability index; entry is VPDVKEMEKSSFTEYIESPDVENE [TAF7L] 5.61

Report measured protein stability index; entry is SSISSSARRTTRSEPIRRAGKSGT [MAP2] 5.09

Report measured protein stability index; entry is PPGIPPLMPGVPPLMPGMPPVMPG [ZNF207] 4.07
